Biological target: cellular GLS activity in PC3 cells (Homo sapiens (Human))
Sequence (O94925 55-669): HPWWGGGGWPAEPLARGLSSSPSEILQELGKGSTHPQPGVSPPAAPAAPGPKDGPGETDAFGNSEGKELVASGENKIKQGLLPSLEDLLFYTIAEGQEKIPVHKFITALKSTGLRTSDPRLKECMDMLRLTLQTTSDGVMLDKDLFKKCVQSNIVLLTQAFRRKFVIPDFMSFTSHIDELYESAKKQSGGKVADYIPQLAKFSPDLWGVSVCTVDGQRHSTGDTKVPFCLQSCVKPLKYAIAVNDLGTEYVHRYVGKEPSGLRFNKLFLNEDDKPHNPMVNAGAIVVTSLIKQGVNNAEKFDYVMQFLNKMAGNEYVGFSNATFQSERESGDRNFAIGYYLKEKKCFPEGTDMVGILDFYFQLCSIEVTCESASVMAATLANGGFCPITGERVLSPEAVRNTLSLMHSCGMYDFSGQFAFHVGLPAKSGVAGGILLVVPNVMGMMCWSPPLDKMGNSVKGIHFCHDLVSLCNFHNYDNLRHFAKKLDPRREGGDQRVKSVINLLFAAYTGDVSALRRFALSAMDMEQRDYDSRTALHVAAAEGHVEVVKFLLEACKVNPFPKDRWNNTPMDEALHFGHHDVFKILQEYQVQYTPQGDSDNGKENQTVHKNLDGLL
Assay: GLS Cell Potency Assay (PC3 coupled assay measuring cellular glutamate depletion)
Settings: PC3 cells, 6 h incubation, cellular glutamate depletion; read-out: Assay b) GLS cell MOA Mean IC50
Threshold check on IC50: strictly below 9 nM is Met; on or above 9 nM is Not met.

As a guide, the following entries are already answered.
Does the reported IC50 of Cc1cccc([C@@H](C(=O)Nc2nnc(N[C@@H]3CCN(c4cccnn4)C3)s2)N(C)C)c1 stay below 9 nM?
Met

Does the reported IC50 of O=C(Nc1nnc(N[C@@H]2CCN(c3cccnn3)C2)s1)[C@H](c1ccc(F)c(OC(F)(F)F)c1)N1CCC1 stay below 9 nM?
Not met

Does the reported IC50 of CN(C)[C@@H](C(=O)Nc1nnc(N[C@@H]2CCN(c3cccnn3)C2)s1)c1cccc(OC(F)(F)F)c1 (single isomer, unassigned) [Example 4(b)] stay below 9 nM?
Met

Does the reported IC50 of CN(C)[C@@H](C(=O)Nc1nnc(N[C@@H]2CCN(c3cccnn3)C2)s1)c1cccc(OC(F)(F)F)c1 [Example 14] stay below 9 nM?
Not met

Does the reported IC50 of Cc1ccc([C@@H](C(=O)Nc2nnc(N[C@@H]3CCN(c4cccnn4)C3)s2)N(C)C)cc1 stay below 9 nM?
Met

Continuing:
Does the reported IC50 of CN(C)[C@H](C(=O)Nc1nnc(N[C@@H]2CCN(c3cccnn3)C2)s1)c1cccc(OC(F)F)c1 stay below 9 nM?
Not met

Does the reported IC50 of COc1cccc([C@@H](C(=O)Nc2nnc(N[C@@H]3CCN(c4cccnn4)C3)s2)N2CCC2)c1 stay below 9 nM?
Not met

Does the reported IC50 of O=C(Nc1nnc(N[C@@H]2CCN(c3ccc(F)nn3)C2)s1)[C@@H](c1cccc(OC(F)(F)F)c1)N1CCC1 stay below 9 nM?
Met

Does the reported IC50 of O=C(Nc1nnc(N[C@@H]2CCN(c3cccnn3)C2)s1)[C@@H](c1ccc(F)c(OC(F)(F)F)c1)N1CCC1 (single isomer, unassigned) stay below 9 nM?
Met

Does the reported IC50 of CN(C)[C@@H](C(=O)Nc1nnc(N[C@@H]2CCN(c3cccnn3)C2)s1)c1cccc(OC(F)F)c1 stay below 9 nM?
Met

Does the reported IC50 of CN(C)[C@H](C(=O)Nc1nnc(N[C@@H]2CCN(c3cccnn3)C2)s1)c1cccc(OC(F)(F)F)c1 [Example 4(a)] stay below 9 nM?
Met

Does the reported IC50 of CN(C)[C@H](C(=O)Nc1nnc(N[C@@H]2CCN(c3cccnn3)C2)s1)c1cccc(C#N)c1 stay below 9 nM?
Not met

Does the reported IC50 of O=C(Nc1nnc(N[C@@H]2CCN(c3cccnn3)C2)s1)[C@@H](c1cccc(OC(F)(F)F)c1)N1CCC1 stay below 9 nM?
Met

Does the reported IC50 of O=C(Nc1nnc(N[C@@H]2CCN(c3cccnn3)C2)s1)[C@H](c1cccc(OC(F)(F)F)c1)N1CCC1 stay below 9 nM?
Met

* * *

Tested on: NCI-H1703 cells
Experiment: GLS Cell Proliferation Assay (NCI-H1703 cell proliferation)
Format: cell-based
Settings: Homo sapiens, NCI-H1703, 120 h, NCI-H1703 cells, 5 days incubation, Sytox Green; read-out: Assay c) Prolif Mean IC50
metric: pIC50
// pIC50 here means minus log10 of the molar concentration (mol/L)

Given COc1cccc([C@@H](C(=O)Nc2nnc(N[C@@H]3CCN(c4cccnn4)C3)s2)N2CCC2)c1 , state its recorded pIC50.
7.53

Given CN(C)[C@@H](C(=O)Nc1nnc(N[C@@H]2CCN(c3cccnn3)C2)s1)c1cccc(OC(F)(F)F)c1 [Example 14] , state its recorded pIC50.
8.28

Given COc1ccc([C@@H](C(=O)Nc2nnc(N[C@@H]3CCN(c4cccnn4)C3)s2)N(C)C)cc1 , state its recorded pIC50.
6.88

Given COc1ccc([C@H](C(=O)Nc2nnc(N[C@@H]3CCN(c4cccnn4)C3)s2)N(C)C)cc1 , state its recorded pIC50.
6.82

Given O=C(Nc1nnc(N[C@@H]2CCN(c3cccnn3)C2)s1)[C@@H](c1ccc(F)c(OC(F)(F)F)c1)N1CCC1 (single isomer, unassigned) , state its recorded pIC50.
7.52

Continuing:
Given CN(C)[C@@H](C(=O)Nc1nnc(N[C@@H]2CCN(c3cccnn3)C2)s1)c1cccc(OC(F)(F)F)c1 (single isomer, unassigned) [Example 4(b)] , state its recorded pIC50.
8.60

Given COc1cccc([C@H](C(=O)Nc2nnc(N[C@@H]3CCN(c4cccnn4)C3)s2)N2CCC2)c1 (single isomer, unassigned) , state its recorded pIC50.
7.09

Given O=C(Nc1nnc(N[C@@H]2CCN(c3cccnn3)C2)s1)[C@H](c1ccc(F)c(OC(F)(F)F)c1)N1CCC1 , state its recorded pIC50.
7.72
